// data source = ChEMBL document CHEMBL1123673

- ASSAY COMMENT: Percent killing of the total Escherichia coli K12 (ATCC 25868)cells at the C50 concentration was determined.
- Format: ADME
VALUE TYPE: Kill at C50

Kill at C50 recorded for this compound, "NC[C@@H]1O[C@H](O[C@H]2[C@@H](O)[C@H](O[C@@H]3[C@@H](O)[C@H](N)C[C@H](N)[C@H]3O[C@H]3O[C@H](CO)[C@@H](O)[C@H](O)[C@H]3N)O[C@@H]2CO)[C@H](N)[C@@H](O)[C@@H]1O" , is 61%

Kill at C50 recorded for this compound, "NC[C@@H]1O[C@H](O[C@H]2[C@@H](O)[C@H](O[C@@H]3[C@@H](O)[C@H](N)C[C@H](N)[C@H]3O[C@H]3O[C@H](CO)[C@@H](O)C[C@H]3N)O[C@@H]2CO)[C@H](N)[C@@H](O)[C@@H]1O[C@H]1O[C@H](CO)[C@@H](O)[C@H](O)[C@@H]1O" , is 40%

Kill at C50 recorded for this compound, "NC[C@H]1O[C@H](O[C@H]2[C@H](O)[C@@H](O[C@H]3O[C@H](CO)[C@@H](O)[C@H](N)[C@H]3O)[C@H](N)C[C@@H]2N)[C@H](N)[C@@H](O)[C@@H]1O" , is 31%

Kill at C50 recorded for this compound, "NC[C@H]1O[C@H](O[C@H]2[C@H](O)[C@@H](O[C@H]3O[C@H](CO)[C@@H](O)[C@H](N)[C@H]3O)[C@H](N)C[C@@H]2N)[C@H](N)C[C@@H]1O" , is 54%
